Reported TGI values for a set of molecules
- Test system: SK-MEL-2 melanoma
- assay-comment: NCI tumour cell line growth inhibition, 48 h

Worked cases, answers included:
C[N+]1(C)CC=C(N2CCOCC2)CC1: > 10 µM
Cc1c2c(n3c(nc4ccccc43)c1C#N)N(c1ccc(Cl)cc1)CC2: > 100 µM
CCCCCCCCCCCCNC(=O)NCC(OCC)OCC: > 10 µM
COC(=O)C1Cc2c(C)cccc2C1=O (stereo not drawn): > 100 µM
COc1ccc(C2C3=C(NC(=O)C2C#N)c2ccc4ccccc4c2OCC3)cc1 (stereo not drawn): > 100 µM

INPUT: Find the recorded TGI belonging to Cc1ccc(-c2cc(-c3ccco3)nc(N)n2)o1 and report it.
OUTPUT: > 100 µM

INPUT: Find the recorded TGI belonging to COc1c(C2(c3ccc(F)cc3)SCCCS2)c(=O)c1=O and report it.
OUTPUT: > 100 µM

INPUT: Find the recorded TGI belonging to CC1OCC2OC(C)OC(C3C4=C(CC(C)(C)CC4=O)OC4=C3C(=O)CC(C)(C)C4)C2O1 (stereo not drawn) and report it.
OUTPUT: > 100 µM
